- METHOD_NOTES: Pharmacokinetic analysis in plasma and brain
- Assay type: in vivo
- CONDITION_LABEL: male, mouse; blood plasma, 30 mg/kg oral, C57BL/6J mice
MEASURED_ATTRIBUTE: AUC(0-inf) (ng·h/mL)
Response body: numeric value in ng·h/mL, unit text excluded.

Form field AUC(0-inf), entry CC(C)=CCc1c(O)ccc(C(=O)/C=C/c2ccc(O)cc2)c1O : 637

* * *

- METHOD_NOTES: Pharmacokinetic analysis in plasma and brain
- Type: in vivo
- CONDITION_LABEL: male, mouse; brain, 30 mg/kg oral, C57BL/6J mice
MEASURED_ATTRIBUTE: Tmax

Form field Tmax, entry CC(C)=CCc1c(O)ccc(C(=O)/C=C/c2ccc(O)cc2)c1O : 36 min
